B1: Pistol ribozyme (parent)
chain: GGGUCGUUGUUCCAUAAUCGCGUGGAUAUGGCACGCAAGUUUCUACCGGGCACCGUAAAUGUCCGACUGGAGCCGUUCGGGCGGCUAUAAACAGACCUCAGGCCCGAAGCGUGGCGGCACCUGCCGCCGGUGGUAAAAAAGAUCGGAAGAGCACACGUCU

# Variants of: B1
# procedureSummary: aptazyme ON/OFF ratio, guanine; higher = stronger switching; co-transcriptional cleavage with and without guanine
Provide the reported aptazyme ON/OFF ratio of each item.
Respond using a number only.

Reported aptazyme ON/OFF ratio ( U7G G9U U10A U11A C12A C13G ) = 1.26

Reported aptazyme ON/OFF ratio ( U7C U8A G9U U10G C12U C13A ) = 1.1

Reported aptazyme ON/OFF ratio ( U7A U10A U11G C12U C13U ) = 1.35

Reported aptazyme ON/OFF ratio ( U7C G9U U10C U11C C12G C13G ) = 1.03

Reported aptazyme ON/OFF ratio ( U7G G9U U11G C12U C13U ) = 1.44

Reported aptazyme ON/OFF ratio ( U7A G9U U10A U11A C12A C13A ) = 1.1

Reported aptazyme ON/OFF ratio ( U7A G9C U10G U11C C12A ) = 1.08

Reported aptazyme ON/OFF ratio ( U7A U8G G9A U10C U11G C12A ) = 1.12

Reported aptazyme ON/OFF ratio ( U8G G9C U10C U11A C12U C13G ) = 1.02

Reported aptazyme ON/OFF ratio ( U7G U8G G9C U11G ) = 2.2

Reported aptazyme ON/OFF ratio ( U7C U8C G9C U11G C13A ) = 1.12

Reported aptazyme ON/OFF ratio ( U7G U8C G9C U11A C12U C13A ) = 1.09

Reported aptazyme ON/OFF ratio ( U7G G9C U10G U11G ) = 2.48

Reported aptazyme ON/OFF ratio ( U7A U8C G9C U10G U11A C13U ) = 1.02

Reported aptazyme ON/OFF ratio ( U7A U8A G9A U10A U11A C12U C13U ) = 1.14

Reported aptazyme ON/OFF ratio ( U7A G9U U11A C12G C13A ) = 1.08

Reported aptazyme ON/OFF ratio ( U7G U8C G9U U10G U11G C12A C13G ) = 1.12

Reported aptazyme ON/OFF ratio ( U8C G9A C12A C13A ) = 1.33

Reported aptazyme ON/OFF ratio ( U7A U8A G9C U11A C12G C13G ) = 1.2

Reported aptazyme ON/OFF ratio ( U7C U8A G9C U10C U11C C13A ) = 1.01

Reported aptazyme ON/OFF ratio ( U8G G9U U10A C12G ) = 1.15

Reported aptazyme ON/OFF ratio ( U7C U8C G9A U11A C12U C13A ) = 1.26

Reported aptazyme ON/OFF ratio ( U7A G9U U11A C12A ) = 1.28

Reported aptazyme ON/OFF ratio ( U7A U8A U10A U11A C12A C13U ) = 1.25

Reported aptazyme ON/OFF ratio ( U8A G9C C13U ) = 1.17

Reported aptazyme ON/OFF ratio ( U7A U8A G9A U10G U11G C12A ) = 1.18

Reported aptazyme ON/OFF ratio ( U7A U8G U10G U11G C12A C13G ) = 1.47

Reported aptazyme ON/OFF ratio ( U7G U8C G9C U10A U11A C13A ) = 1.09

Reported aptazyme ON/OFF ratio ( U7A U8C G9U U10A U11C C12A C13U ) = 1.23

Reported aptazyme ON/OFF ratio ( U8G G9U U10A C12A C13A ) = 1.21

Reported aptazyme ON/OFF ratio ( U7G U8A G9C U10A U11C C12G ) = 1.05

Reported aptazyme ON/OFF ratio ( U7A G9C U10C C12A C13A ) = 1.07

Reported aptazyme ON/OFF ratio ( U7C U8G G9A U10C U11G C12A C13G ) = 1.13

Reported aptazyme ON/OFF ratio ( U7A U8C G9A U10A U11G C12U ) = 1.45

Reported aptazyme ON/OFF ratio ( U7A U8G U10G U11A C12U C13G ) = 0.975

Reported aptazyme ON/OFF ratio ( U7A U8A G9C U10A U11C C12U C13A ) = 1.13

Reported aptazyme ON/OFF ratio ( U7G U8G C12G C13U ) = 1.37

Reported aptazyme ON/OFF ratio ( G9U U10A C12G C13G ) = 1.33

Reported aptazyme ON/OFF ratio ( U7C U8G G9U U10C U11C C12G C13G ) = 1.08

Reported aptazyme ON/OFF ratio ( U7G U8C G9C U11C C12G C13G ) = 1.07

Reported aptazyme ON/OFF ratio ( U7A U8A G9C U10G U11C ) = 1.1

Reported aptazyme ON/OFF ratio ( U7A U8C G9U U11C C12A C13G ) = 1.1

Reported aptazyme ON/OFF ratio ( U7A U8A G9U U10G U11A C12A C13G ) = 1.09

Reported aptazyme ON/OFF ratio ( U7G G9A U10G C12A ) = 1.09

Reported aptazyme ON/OFF ratio ( U8A U10G U11G C12G C13U ) = 1.32

Reported aptazyme ON/OFF ratio ( U7A U8A G9U U10G U11G C13U ) = 1.17

Reported aptazyme ON/OFF ratio ( U7G U8G U10G U11G C12G C13G ) = 1.18

Reported aptazyme ON/OFF ratio ( U7A U8C G9U C13A ) = 1.27

Reported aptazyme ON/OFF ratio ( U11G C12A ) = 1.11

Reported aptazyme ON/OFF ratio ( U7G U8G U11A C12U C13A ) = 1.56

Reported aptazyme ON/OFF ratio ( U7A U8C U10G U11G ) = 1.4

Reported aptazyme ON/OFF ratio ( U8G G9A U11C C12A C13G ) = 1.16

Reported aptazyme ON/OFF ratio ( U7G U8A G9A U10C U11G C12U C13A ) = 1.1

Reported aptazyme ON/OFF ratio ( U7G U8C G9C U10C U11A C12U C13G ) = 1.12

Reported aptazyme ON/OFF ratio ( G9U U11A C12A C13U ) = 1.23

Reported aptazyme ON/OFF ratio ( U8G U11A C12G ) = 1.1

Reported aptazyme ON/OFF ratio ( U7A U8A U10A U11C ) = 0.996

Reported aptazyme ON/OFF ratio ( U7G U8A G9A U11C C12U C13A ) = 1.23

Reported aptazyme ON/OFF ratio ( U8A G9U U10C U11G C12G C13U ) = 1.11

Reported aptazyme ON/OFF ratio ( U8G U10A U11C C12A ) = 1.18

Reported aptazyme ON/OFF ratio ( U7G U8C G9U U10A U11A C12U C13U ) = 1.33

Reported aptazyme ON/OFF ratio ( U7C U8G U10A U11C C12U C13U ) = 1.06

Reported aptazyme ON/OFF ratio ( U8A U10C U11G C12G C13A ) = 1.29

Reported aptazyme ON/OFF ratio ( U7A G9C U10A U11C ) = 1.04

Reported aptazyme ON/OFF ratio ( U7A G9U U10C U11C C12U ) = 1.03

Reported aptazyme ON/OFF ratio ( U7G G9A U10G U11A C13A ) = 1.05

Reported aptazyme ON/OFF ratio ( U8A U10C U11C C12U C13G ) = 1.06

Reported aptazyme ON/OFF ratio ( U7C U8C G9C U10A U11G C12G ) = 1.14

Reported aptazyme ON/OFF ratio ( U8A G9C U11A C13A ) = 1.16

Reported aptazyme ON/OFF ratio ( U7C U8C G9C U10C C12A C13U ) = 1.1

Reported aptazyme ON/OFF ratio ( U7A G9U U10C U11G C12G C13U ) = 1.11

Reported aptazyme ON/OFF ratio ( U7A U8G G9A U10A U11C C12G ) = 1.37

Reported aptazyme ON/OFF ratio ( U8A G9A U10A U11A C12U C13A ) = 1.37

Reported aptazyme ON/OFF ratio ( U7G G9A U10C C12U C13A ) = 1.18

Reported aptazyme ON/OFF ratio ( U7G G9C U10A C12U C13A ) = 1.09

Reported aptazyme ON/OFF ratio ( U7C G9U U10C U11G C12A C13G ) = 1.1

Reported aptazyme ON/OFF ratio ( U7C G9C U10C U11G C12U C13G ) = 1.1

Reported aptazyme ON/OFF ratio ( U7A G9C U10G ) = 1.32

Reported aptazyme ON/OFF ratio ( U7A U8C G9U U10C U11A C12A ) = 1.14

Reported aptazyme ON/OFF ratio ( U7C U8G G9U ) = 3.71

Reported aptazyme ON/OFF ratio ( U7A U8C G9U U10A C12U ) = 1.18

Reported aptazyme ON/OFF ratio ( U7G C12A ) = 1.14

Reported aptazyme ON/OFF ratio ( U7A U8A G9C U10C U11G C12G C13U ) = 1.08

Reported aptazyme ON/OFF ratio ( U8C G9A U10G U11G C12G C13U ) = 1.11

Reported aptazyme ON/OFF ratio ( U7G G9U U10C U11A C13G ) = 1.16

Reported aptazyme ON/OFF ratio ( U7C U8C G9U U11G C12G C13U ) = 1.05

Reported aptazyme ON/OFF ratio ( U7C U8A G9A U10C U11A C12A C13U ) = 1.15

Reported aptazyme ON/OFF ratio ( U8A G9C U10G ) = 1.54

Reported aptazyme ON/OFF ratio ( U8A U10G U11G C12G C13A ) = 1.45

Reported aptazyme ON/OFF ratio ( U8C U10G U11A ) = 1.07

Reported aptazyme ON/OFF ratio ( U7C U10G U11G C12A C13A ) = 1.13

All values here come from the RNAGym collection of RNA variant scans (doi:10.1021/acssynbio.7b00057).
